test system: MDA-MB-435 melanoma; assay: NCI-60 one-dose screen, 48 h; conditions: 10 µM unless noted
About 83,000 compounds went through this panel and 20% of them were active in at least one assay; those are over-represented in the sample as a whole. The source made the active and inactive calls. The calls were made as follows: active = growth percent below 10; inactive = the rest.
Respond with a class label; see active, inactive

Reference set, count: 3
CCN(CC)CCCCCCNc1ccnc2cc(Cl)ccc12 | inactive
O=C1OC(c2ccc(Cl)c(Cl)c2)=C/C1=C/c1cccc([N+](=O)[O-])c1 | inactive
NC(=O)NCC1CCCCC1 | inactive

Just curious, what result did CC(=O)O[C@H]1CC[C@@]2(C)[C@@H](CC[C@@H]3[C@@H]2CC(=O)[C@@]2(C)[C@H]3C[C@@H](C3CCCC3=O)[C@@H]2C(C)=O)C1 (some centres not stated) get here?
inactive

---

system: MDA-MB-435 melanoma; experiment: NCI-60 one-dose screen, 48 h (100 = growth as untreated, 0 = no growth, -100 = all killed); details: 10 µM unless noted
About 83,000 compounds went through this panel and 20% of them were active in at least one assay; those are over-represented in the sample as a whole.
Each item that follows carries a reported growth.
Numeric only. Scale: %

COC(=O)[C@]12CC[C@@H](C)[C@H](C)[C@@H]1C1=CC[C@@H]3[C@@]4(C)C[C@@H](OC(C)=O)[C@H](OC(C)=O)[C@@](C)(COC(C)=O)[C@@H]4[C@H](O)C[C@@]3(C)[C@]1(C)CC2 | 17.4
Fc1ccc2c(c1)c(-c1nc(-c3c[nH]c4ncccc34)cs1)cn2CCCN1CCCCC1 | -20

I am curious: what growth value has been reported for Cn1cc(-c2csc(-c3c[nH]c4ccccc34)n2)c2cccnc21 ?
-13.9
